Target: T1, human LILRB4 (human, UniProt Q8NHJ6 22-448)
T1 construct: whole, on cells; also called hLILRB4
Test: FACS, 293F-hLILRB4 cells
Endpoint Label: MFI (MFI)
Numbers only, in MFI.

2-H1-D7-E5-D5 (antibody, V domains shown, mouse monoclonal hybridoma antibody) VH: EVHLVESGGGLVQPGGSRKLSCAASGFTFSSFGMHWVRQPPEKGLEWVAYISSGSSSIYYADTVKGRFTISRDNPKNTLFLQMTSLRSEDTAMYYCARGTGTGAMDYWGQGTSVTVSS VL: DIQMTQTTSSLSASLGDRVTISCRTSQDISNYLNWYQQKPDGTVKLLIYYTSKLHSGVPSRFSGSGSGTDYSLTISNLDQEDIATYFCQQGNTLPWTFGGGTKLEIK ... 915

State the recorded MFI for every item in the following list.
1. 25-G9-G4-C12 (antibody, V domains shown, mouse monoclonal hybridoma antibody) VH: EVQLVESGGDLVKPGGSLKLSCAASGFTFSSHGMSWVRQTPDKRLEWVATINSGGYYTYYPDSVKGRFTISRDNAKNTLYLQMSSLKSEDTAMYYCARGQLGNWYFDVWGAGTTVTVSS VL: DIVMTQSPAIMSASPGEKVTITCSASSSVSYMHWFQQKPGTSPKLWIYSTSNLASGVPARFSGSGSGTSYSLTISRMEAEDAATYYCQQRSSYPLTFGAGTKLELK
2. 4-E6-E4-B12 (antibody, V domains shown, mouse monoclonal hybridoma antibody) VH: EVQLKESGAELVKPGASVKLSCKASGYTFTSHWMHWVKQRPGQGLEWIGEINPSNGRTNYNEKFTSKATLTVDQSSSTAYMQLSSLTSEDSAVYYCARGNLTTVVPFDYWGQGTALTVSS VL: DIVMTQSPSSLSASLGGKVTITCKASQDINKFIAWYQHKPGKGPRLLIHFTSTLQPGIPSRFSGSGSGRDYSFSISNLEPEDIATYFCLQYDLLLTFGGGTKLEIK

# output
[383, 1530]
